Molecular target: CYP2D6 (Homo sapiens, UniProt P10635)
Construct: tissue Eurofins protocol ITEMG232; host or cells: human liver microsomes
Sequence (P10635 whole entry): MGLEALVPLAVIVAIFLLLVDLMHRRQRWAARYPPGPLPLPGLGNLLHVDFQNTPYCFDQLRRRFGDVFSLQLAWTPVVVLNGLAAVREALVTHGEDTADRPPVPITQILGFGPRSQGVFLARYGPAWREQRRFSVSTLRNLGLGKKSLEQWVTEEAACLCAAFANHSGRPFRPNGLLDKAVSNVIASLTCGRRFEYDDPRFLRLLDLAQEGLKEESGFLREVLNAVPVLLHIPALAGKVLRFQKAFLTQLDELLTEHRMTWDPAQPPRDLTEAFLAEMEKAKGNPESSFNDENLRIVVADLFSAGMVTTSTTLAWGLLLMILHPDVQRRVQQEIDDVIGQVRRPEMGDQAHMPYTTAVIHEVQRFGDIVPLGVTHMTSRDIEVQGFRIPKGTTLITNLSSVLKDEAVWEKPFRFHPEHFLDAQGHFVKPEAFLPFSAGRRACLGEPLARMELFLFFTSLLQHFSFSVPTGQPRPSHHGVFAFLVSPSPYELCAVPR
Assay: CYP inhibition in human liver microsomes
Type: in vitro ADME
Details: probe dextromethorphan, substrate dextromethorphan, read-out: CYP2D6 Inh %
measuredProperty: inhibition at 10 µM (%)
# output: bare number, implied unit %

Lab request: please report inhibition at 10 µM under test system CYP2D6 (Homo sapiens, UniProt P10635) for Cc1nccn1Cc1ccc(-c2cc(CC(C)C)sc2S(=O)(=O)Nc2ncccn2)cc1Cl
28.3

---

Biological target: CYP3A4 (Homo sapiens, UniProt P08684)
Sequence (P08684 whole entry): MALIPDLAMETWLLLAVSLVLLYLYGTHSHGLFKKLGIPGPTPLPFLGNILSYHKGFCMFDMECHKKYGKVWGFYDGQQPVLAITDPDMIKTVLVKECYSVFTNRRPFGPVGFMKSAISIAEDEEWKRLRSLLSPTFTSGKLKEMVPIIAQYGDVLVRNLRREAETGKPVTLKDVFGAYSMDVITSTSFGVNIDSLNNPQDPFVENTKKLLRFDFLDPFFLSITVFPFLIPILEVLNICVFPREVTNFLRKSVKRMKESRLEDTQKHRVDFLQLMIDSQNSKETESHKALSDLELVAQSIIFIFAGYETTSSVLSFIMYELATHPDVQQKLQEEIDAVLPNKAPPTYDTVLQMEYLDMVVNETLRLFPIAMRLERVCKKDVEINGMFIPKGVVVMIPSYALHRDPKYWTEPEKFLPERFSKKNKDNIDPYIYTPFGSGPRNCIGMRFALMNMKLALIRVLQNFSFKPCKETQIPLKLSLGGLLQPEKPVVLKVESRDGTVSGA
Experiment: CYP inhibition in human liver microsomes (midazolam)
Format: in vitro ADME
Design: using isoform-specific substrates incubated with human liver microsomes; tissue Eurofins protocol ITEMG232; host or cells: human liver microsomes
Conditions: probe midazolam, substrate midazolam, read-out: CYP3A4 midazolam Inh %
measuredProperty: inhibition at 10 µM

Name the reported inhibition at 10 µM value associated with the molecule Cc1nccn1Cc1ccc(-c2cc(CC(C)C)sc2S(=O)(=O)Nc2ncccn2)cc1Cl [Example 1]
40.1%

---

Target: CYP2C8 (Homo sapiens, UniProt P10632)
Construct: using isoform-specific substrates incubated with human liver microsomes; tissue Eurofins protocol ITEMG232; host or cells: human liver microsomes
Sequence (P10632 whole entry, canonical isoform): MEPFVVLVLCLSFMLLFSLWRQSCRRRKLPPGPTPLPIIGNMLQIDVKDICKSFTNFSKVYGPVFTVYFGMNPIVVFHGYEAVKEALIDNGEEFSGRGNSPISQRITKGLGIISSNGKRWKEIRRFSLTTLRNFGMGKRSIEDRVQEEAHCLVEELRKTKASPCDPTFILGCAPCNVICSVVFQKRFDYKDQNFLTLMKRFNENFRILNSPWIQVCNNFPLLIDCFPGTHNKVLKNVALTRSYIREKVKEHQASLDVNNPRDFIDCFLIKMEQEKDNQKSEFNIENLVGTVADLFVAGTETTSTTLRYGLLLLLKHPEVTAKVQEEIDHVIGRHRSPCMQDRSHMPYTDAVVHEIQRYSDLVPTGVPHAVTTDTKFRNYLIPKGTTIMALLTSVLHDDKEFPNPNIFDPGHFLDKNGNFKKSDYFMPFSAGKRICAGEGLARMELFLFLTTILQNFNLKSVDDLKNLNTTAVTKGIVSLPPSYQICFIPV
Experiment: CYP inhibition in human liver microsomes
Type: in vitro ADME
Details: probe paclitaxel and amodiaquine, substrates paclitaxel and amodiaquine, read-out: CYP2C8 Inh %
measuredProperty: inhibition at 10 µM
# number then unit; no other words

Name the reported inhibition at 10 µM value associated with the molecule Cc1nccn1Cc1ccc(-c2cc(CC(C)C)sc2S(=O)(=O)Nc2ncccn2)cc1Cl
33.9%

---

Entries and their half-life at 1 μM
Assay: Metabolic stability in pooled human liver microsomes
Format: in vitro ADME
Conditions: pooled human liver microsomes 0.5 mg/mL, without NADPH, 1 μM compound, 37° C., read-out: T1/2, no NaDPH

| compound | half-life at 1 μM |
| --- | --- |
| Cc1cc(-c2cc(CC(C)C)sc2S(=O)(=O)Nc2ccccn2)ccc1Cn1ccnc1C [Example 3] | > 60 min |
| Cc1nccn1Cc1ccc(-c2cc(CC(C)C)sc2S(=O)(=O)Nc2ccccn2)cc1Cl [Example 2] | > 60 min |

Name the reported half-life at 1 μM value associated with the compound Cc1nccn1Cc1ccc(-c2cc(CC(C)C)sc2S(=O)(=O)Nc2ncccn2)cc1Cl [Example 1]
> 60 min

---

Target: CYP2C9 (Homo sapiens)
Sequence (P11712 whole entry): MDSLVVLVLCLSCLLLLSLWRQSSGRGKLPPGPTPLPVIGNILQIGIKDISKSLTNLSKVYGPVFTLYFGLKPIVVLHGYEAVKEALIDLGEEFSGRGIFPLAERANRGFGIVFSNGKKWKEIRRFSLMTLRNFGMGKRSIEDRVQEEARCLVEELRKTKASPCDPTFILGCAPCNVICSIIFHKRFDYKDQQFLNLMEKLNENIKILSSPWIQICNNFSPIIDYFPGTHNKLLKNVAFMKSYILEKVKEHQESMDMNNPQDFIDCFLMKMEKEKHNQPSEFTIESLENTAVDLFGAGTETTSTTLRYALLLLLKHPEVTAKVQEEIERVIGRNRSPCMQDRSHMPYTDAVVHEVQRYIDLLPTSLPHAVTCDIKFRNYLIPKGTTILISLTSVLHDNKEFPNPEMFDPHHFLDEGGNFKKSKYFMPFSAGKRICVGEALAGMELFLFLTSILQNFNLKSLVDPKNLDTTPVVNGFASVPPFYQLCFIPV
Assay: CYP inhibition in human liver microsomes
Type: in vitro ADME
Parameters: using isoform-specific substrates incubated with human liver microsomes; tissue Eurofins protocol ITEMG232; host or cells: human liver microsomes
Conditions: probe diclofenac, substrate diclofenac, read-out: CYP2C9 Inh %
measuredProperty: inhibition at 10 µM (%)
# output: bare number, implied unit %

Name the reported inhibition at 10 µM value associated with the compound Cc1nccn1Cc1ccc(-c2cc(CC(C)C)sc2S(=O)(=O)Nc2ncccn2)cc1Cl
49.4

---

Molecular target: CYP2C19 (Homo sapiens, UniProt P33261)
Construct: using isoform-specific substrates incubated with human liver microsomes; tissue Eurofins protocol ITEMG232; host or cells: human liver microsomes
Sequence (P33261 whole entry, canonical isoform): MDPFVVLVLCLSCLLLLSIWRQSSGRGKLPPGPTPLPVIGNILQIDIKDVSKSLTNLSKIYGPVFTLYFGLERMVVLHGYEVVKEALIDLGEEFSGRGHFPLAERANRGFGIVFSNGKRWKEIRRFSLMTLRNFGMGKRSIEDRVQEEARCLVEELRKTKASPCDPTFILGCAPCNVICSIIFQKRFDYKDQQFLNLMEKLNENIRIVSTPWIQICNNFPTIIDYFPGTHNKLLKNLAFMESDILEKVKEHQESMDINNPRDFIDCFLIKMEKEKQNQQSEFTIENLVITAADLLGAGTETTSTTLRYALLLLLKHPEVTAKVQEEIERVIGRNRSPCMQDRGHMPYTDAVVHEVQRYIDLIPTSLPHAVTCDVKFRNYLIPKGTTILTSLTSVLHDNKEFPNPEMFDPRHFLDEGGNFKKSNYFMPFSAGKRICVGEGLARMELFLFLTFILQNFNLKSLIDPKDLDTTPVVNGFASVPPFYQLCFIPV
Assay: CYP inhibition in human liver microsomes
Assay type: in vitro ADME
Conditions: probe omeprazole, substrate omeprazole, read-out: CYP2C19 Inh %
measuredProperty: inhibition at 10 µM (%)
# output: bare number, implied unit %

Name the reported inhibition at 10 µM value associated with the compound Cc1nccn1Cc1ccc(-c2cc(CC(C)C)sc2S(=O)(=O)Nc2ncccn2)cc1Cl
72.7

---

System: CYP3A4&5
Assay: CYP inhibition in human liver microsomes (testosterone)
Format: in vitro ADME
Settings: probe testosterone, substrate testosterone, read-out: CYP3A4&5 testosterone Inh %
Entries and their inhibition at 10 µM
# output: bare number, implied unit %

| compound | measuredProperty | measuredResult |
| --- | --- | --- |
| Cc1nccn1Cc1ccc(-c2cc(CC(C)C)sc2S(=O)(=O)Nc2ncccn2)cc1Cl [Example 1] | inhibition at 10 µM | 40.1 |

Alright, here's another compound for you.
Name the reported inhibition at 10 µM value associated with the compound CCCCOC(=O)NS(=O)(=O)c1sc(CC(C)C)cc1-c1ccc(Cn2ccnc2)cc1 [Example C21]
94

---

Entries and their half-life at 1 μM
Assay: Metabolic stability in pooled human liver microsomes
Assay type: in vitro ADME
Details: pooled human liver microsomes 0.5 mg/mL, with 1 mM NADPH, 1 μM compound, 37° C., read-out: T1/2, + NaDPH
# output: bare number, implied unit h

| smilesStr | half-life at 1 μM, h |
| --- | --- |
| Cc1cc(-c2cc(CC(C)C)sc2S(=O)(=O)Nc2ccccn2)ccc1Cn1ccnc1C | 0.883 |

Name the reported half-life at 1 μM value associated with the compound Cc1nccn1Cc1ccc(-c2cc(CC(C)C)sc2S(=O)(=O)Nc2ccccn2)cc1Cl
1

---

Molecular target: CYP2B6 (Homo sapiens, UniProt P20813)
Construct: using isoform-specific substrates incubated with human liver microsomes; tissue Eurofins protocol ITEMG232; host or cells: human liver microsomes
Sequence (P20813 whole entry, canonical isoform): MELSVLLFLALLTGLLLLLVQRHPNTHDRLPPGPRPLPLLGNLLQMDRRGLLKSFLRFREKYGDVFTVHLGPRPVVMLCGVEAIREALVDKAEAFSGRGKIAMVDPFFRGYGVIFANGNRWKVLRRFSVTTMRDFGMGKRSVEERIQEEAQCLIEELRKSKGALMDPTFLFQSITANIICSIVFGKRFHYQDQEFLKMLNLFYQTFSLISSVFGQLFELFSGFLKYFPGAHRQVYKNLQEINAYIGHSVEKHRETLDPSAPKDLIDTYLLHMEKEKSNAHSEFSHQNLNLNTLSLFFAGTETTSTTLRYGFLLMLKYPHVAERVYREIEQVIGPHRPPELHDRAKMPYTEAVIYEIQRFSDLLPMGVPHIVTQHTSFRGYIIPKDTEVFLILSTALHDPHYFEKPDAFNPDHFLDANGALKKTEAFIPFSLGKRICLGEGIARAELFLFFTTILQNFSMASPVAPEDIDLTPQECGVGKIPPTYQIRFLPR
Assay: CYP inhibition in human liver microsomes
Format: in vitro ADME
Settings: probe bupropion, substrate bupropion, read-out: CYP2B6 Inh %
measuredProperty: inhibition at 10 µM (%)
# output: bare number, implied unit %

Name the reported inhibition at 10 µM value associated with the compound Cc1nccn1Cc1ccc(-c2cc(CC(C)C)sc2S(=O)(=O)Nc2ncccn2)cc1Cl [Example 1]
22.4

---

Target: CYP1A2 (Homo sapiens, UniProt P05177)
Construct: using isoform-specific substrates incubated with human liver microsomes; tissue Eurofins protocol ITEMG232; host or cells: human liver microsomes
Sequence (P05177 whole entry, canonical isoform): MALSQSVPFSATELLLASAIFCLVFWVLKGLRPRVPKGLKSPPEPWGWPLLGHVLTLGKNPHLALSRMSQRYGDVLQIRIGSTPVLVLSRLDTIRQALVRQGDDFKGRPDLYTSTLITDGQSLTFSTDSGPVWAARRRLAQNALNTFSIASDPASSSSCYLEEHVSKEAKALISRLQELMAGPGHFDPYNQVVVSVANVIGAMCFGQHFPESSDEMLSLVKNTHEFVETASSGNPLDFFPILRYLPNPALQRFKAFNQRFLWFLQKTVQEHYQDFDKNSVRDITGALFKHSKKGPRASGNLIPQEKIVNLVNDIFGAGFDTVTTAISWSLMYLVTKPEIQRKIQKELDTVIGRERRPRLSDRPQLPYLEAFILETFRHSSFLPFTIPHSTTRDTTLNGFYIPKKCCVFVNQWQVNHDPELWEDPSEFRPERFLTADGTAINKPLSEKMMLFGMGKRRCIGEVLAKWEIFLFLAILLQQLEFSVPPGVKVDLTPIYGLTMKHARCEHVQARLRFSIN
Test: in vitro
Type: in vitro ADME
Details: human liver microsomes, substrate phenacetin, read-out: CYP1A2 Inh %
measuredProperty: inhibition at 10 µM (%)
# output: bare number, implied unit %

Name the reported inhibition at 10 µM value associated with the molecule Cc1nccn1Cc1ccc(-c2cc(CC(C)C)sc2S(=O)(=O)Nc2ncccn2)cc1Cl
12.3

Entry source: patent US20260209213A1
